- Experiment Notes: Induction of nitric oxide release in phosphate buffer at 10^-4 M after 1 hr at pH 7.4 by Griess method in presence of L-cysteine relative to control
- Type: physicochemical
- Measurement Setup: pH 7.4, 1 h, 100 µM
Readout Type: Activity (%)

Sample answers from the record:
{"Structure As Smiles": "CC(=O)Nc1ccc(OC(=O)c2ccccc2N(CCO[N+](=O)[O-])c2ccc(C)cc2)cc1", "Readout Units": "%", "Value Observed": 7.31}
{"Structure As Smiles": "CC(=O)Nc1ccc(OC(=O)c2ccccc2N(CCO[N+](=O)[O-])c2ccc([N+](=O)[O-])cc2)cc1", "Readout Units": "%", "Value Observed": 6.98}

(1) CC(=O)Nc1ccc(OC(=O)c2ccccc2N(CCO[N+](=O)[O-])c2ccc(S(N)(=O)=O)cc2)cc1
(2) CC(=O)Nc1ccc(OC(=O)c2ccc(N(CCO[N+](=O)[O-])c3ccccc3C(=O)Oc3ccc(NC(C)=O)cc3)cc2)cc1
(3) CC(=O)Nc1ccc(OC(=O)c2ccccc2N(CCO[N+](=O)[O-])c2ccccc2)cc1
*Q* Endpoint returns the given compounds ordered by ascending Activity. Please list the labels according to the requested order.
*A* 2, 1, 3
(2: 2.46%, 1: 5.88%, 3: 10.71%)
